Target: CCK receptor (pancreas) (Rattus norvegicus, UniProt P30551)
Construct: The whole pancreas of a male Sprague-Dawley rat
Sequence (P30551 whole entry): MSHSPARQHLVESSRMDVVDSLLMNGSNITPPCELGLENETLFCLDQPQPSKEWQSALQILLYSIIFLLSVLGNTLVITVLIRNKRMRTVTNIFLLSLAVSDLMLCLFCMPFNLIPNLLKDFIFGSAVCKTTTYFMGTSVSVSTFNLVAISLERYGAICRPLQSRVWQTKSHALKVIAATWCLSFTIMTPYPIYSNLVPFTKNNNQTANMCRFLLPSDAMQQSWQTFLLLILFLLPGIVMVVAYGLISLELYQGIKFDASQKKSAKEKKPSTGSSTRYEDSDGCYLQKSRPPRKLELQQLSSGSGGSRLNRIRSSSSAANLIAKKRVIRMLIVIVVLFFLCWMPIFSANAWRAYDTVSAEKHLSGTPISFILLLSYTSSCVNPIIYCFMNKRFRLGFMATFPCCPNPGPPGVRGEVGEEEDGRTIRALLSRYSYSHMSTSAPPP
Assay: CCK receptor binding (pancreas) method; I-CCK-8 pancreas assay (CCK-antagonism)
Details: 125I-CCK binding, rat pancreas membranes, 37° C., 30 minutes; read-out: Anti-CCK Activity IC50
Consider the following compounds and their measured IC50 readings.
// units = µM; emit number, no label

Reference set (2 entries):
compound	quantity_kind	numeric_readout
CC(C)C[C@H]1C(=O)N2c3ccccc3[C@@](O)(C[C@@H]3NC(=O)c4ccccc4-n4c3nc3ccccc3c4=O)[C@H]2N1C(=O)C(CCCNC(=O)OCc1ccccc1)NC(=O)OC(C)(C)C (stereo partly drawn) [Example 10]	IC50	4.3
CC(C)C[C@@H]1N[C@H]2N(C1=O)c1ccccc1[C@@]2(O)C[C@@H]1NC(=O)c2ccccc2N2C(=O)c3ccccc3NC12 (stereo partly drawn) [Example 1, hydrate]	IC50	0.21

Provide measured IC50 value, entry: CC(C)C[C@H]1C(=O)N2c3ccccc3[C@@](O)(C[C@@H]3NC(=O)c4ccccc4-n4c3nc3ccccc3c4=O)[C@H]2N1C(=O)[C@H](Cc1ccc(OCc2ccccc2)cc1)NC(=O)OC(C)(C)C [Example 7] 100
